Molecular target: T1, human high affinity trimeric IL-2 receptor (CD25/CD122/CD132) (human, UniProt P01589 22-272; P14784 27-551; P31785 23-369)
T1 sequence 1: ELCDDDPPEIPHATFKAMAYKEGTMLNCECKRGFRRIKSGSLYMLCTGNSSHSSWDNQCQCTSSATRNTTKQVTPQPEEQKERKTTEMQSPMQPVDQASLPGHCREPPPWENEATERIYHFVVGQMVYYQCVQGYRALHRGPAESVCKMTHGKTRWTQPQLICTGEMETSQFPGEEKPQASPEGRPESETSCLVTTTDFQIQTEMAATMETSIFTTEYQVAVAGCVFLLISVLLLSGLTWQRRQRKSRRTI
T1 sequence 2: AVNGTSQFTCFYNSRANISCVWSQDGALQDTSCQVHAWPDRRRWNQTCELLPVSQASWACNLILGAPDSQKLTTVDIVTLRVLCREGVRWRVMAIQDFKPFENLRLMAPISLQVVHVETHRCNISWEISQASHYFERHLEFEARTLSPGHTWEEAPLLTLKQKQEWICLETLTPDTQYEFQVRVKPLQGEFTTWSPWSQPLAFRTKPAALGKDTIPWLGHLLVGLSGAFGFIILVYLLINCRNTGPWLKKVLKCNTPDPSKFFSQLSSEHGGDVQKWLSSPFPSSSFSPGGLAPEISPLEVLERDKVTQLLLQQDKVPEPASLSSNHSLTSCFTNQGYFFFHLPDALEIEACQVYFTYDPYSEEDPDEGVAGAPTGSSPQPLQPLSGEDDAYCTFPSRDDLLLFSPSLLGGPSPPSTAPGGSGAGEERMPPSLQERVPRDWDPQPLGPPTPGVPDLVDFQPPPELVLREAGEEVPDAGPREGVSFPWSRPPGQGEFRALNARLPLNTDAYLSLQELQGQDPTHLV
T1 sequence 3: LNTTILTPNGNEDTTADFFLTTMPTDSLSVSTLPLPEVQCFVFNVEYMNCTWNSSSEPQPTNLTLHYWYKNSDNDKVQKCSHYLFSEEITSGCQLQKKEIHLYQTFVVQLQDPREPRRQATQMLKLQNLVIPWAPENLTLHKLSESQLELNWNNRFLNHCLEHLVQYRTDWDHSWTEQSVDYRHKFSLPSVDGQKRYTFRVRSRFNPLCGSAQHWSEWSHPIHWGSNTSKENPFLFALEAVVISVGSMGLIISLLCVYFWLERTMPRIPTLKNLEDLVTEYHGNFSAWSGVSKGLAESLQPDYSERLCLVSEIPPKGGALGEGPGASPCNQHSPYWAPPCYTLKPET
Test: cell-based or functional assay
measurement.kind: pSTAT5 ratio YT CD25/YT, dilution factor 4, lower table

* YEH (ligand) cytokine: APTSSSTKKTQLQLEHLYLDLEMILNGINNYKNPKLTRMLTFKFYMPKKATELKHLQCLEEELKPLEEVLNLAQSKNFHLRPRDLISNINVIVLELKGSETTFMCEYADETATIVEFLNRWITFCHSIISTLT | 0.9

a = RIH (ligand) cytokine: APTSSSTKKTQLQLEHLRLDLIMILNGINNYKNPKLTRMLTFKFYMPKKATELKHLQCLEEELKPLEEVLNLAQSKNFHLRPRDLISNINVIVLELKGSETTFMCEYADETATIVEFLNRWITFCHSIISTLT
b = RRH (ligand) cytokine: APTSSSTKKTQLQLEHLRLDLRMILNGINNYKNPKLTRMLTFKFYMPKKATELKHLQCLEEELKPLEEVLNLAQSKNFHLRPRDLISNINVIVLELKGSETTFMCEYADETATIVEFLNRWITFCHSIISTLT
-- ask Given a and b , report the one with the higher recorded pSTAT5 ratio YT CD25/YT, dilution factor 4, lower table. Answer with the label corresponding to your selection.
-- reply b
(b: 2.8, a: 1.5)

1 = RYH (ligand) cytokine: APTSSSTKKTQLQLEHLRLDLYMILNGINNYKNPKLTRMLTFKFYMPKKATELKHLQCLEEELKPLEEVLNLAQSKNFHLRPRDLISNINVIVLELKGSETTFMCEYADETATIVEFLNRWITFCHSIISTLT
2 = RGH (ligand) cytokine: APTSSSTKKTQLQLEHLRLDLGMILNGINNYKNPKLTRMLTFKFYMPKKATELKHLQCLEEELKPLEEVLNLAQSKNFHLRPRDLISNINVIVLELKGSETTFMCEYADETATIVEFLNRWITFCHSIISTLT
-- ask I'm curious, which of these has a smaller pSTAT5 ratio YT CD25/YT, dilution factor 4, lower table number: 1 or 2 ? Answer with the label corresponding to your selection.
-- reply 2
(2: 0.8, 1: 2.2)
